This collection of values is drawn from the supplement of paper PMC13380429.

System: A549-ACE2
Experiment: drug-induced phospholipidosis relative to tamoxifen; higher = more phospholipidosis
Conditions: 10 µM; 48 h
measured-metric: drug-induced phospholipidosis (%)

>>> val("CSc1ccc2c(c1)[C@H](N1CCN(C)CC1)Cc1ccccc1S2 (racemic) [metitepine]")
115
>>> val("CN1CCN(Cc2ccc(-c3cnc4[nH]cc(-c5ccc6[nH]ccc6c5)c4c3)cc2)CC1")
208
>>> val("O=C(COc1ccc(Cl)cc1)N[C@H]1CC[C@H](NC(=O)COc2ccc(Cl)cc2)CC1")
2.91
>>> val("Cc1[nH]c(/C=C2\\C(=O)Nc3ccc(F)cc32)c(C)c1C(=O)NCCN1CCCC1")
38.4
>>> val("Cc1csc(NC(=O)CSc2ccc(-c3ccccc3)nn2)n1")
4.85
>>> val("COCC(=O)O[C@]1(CCN(C)CCCc2nc3ccccc3[nH]2)CCc2cc(F)ccc2[C@@H]1C(C)C")
118
>>> val("CC(=O)O[C@@H]1C[C@H]2C(C)(C)C(=O)C=C[C@]2(C)[C@H]2CC[C@@]3(C)[C@H](c4ccoc4)OC(=O)[C@H]4O[C@]43[C@@]21C")
24.2
>>> val("N#CC[C@@H](C1CCCC1)n1cc(-c2ncnc3[nH]ccc23)cn1 [ruxolitinib-(S)]")
1.91

* * *

System: Calu-3
Assay: cell viability relative to DMSO; higher = less toxic
Details: 72 h; 1000 nM
measured-metric: cell viability (%)

>>> val("Cc1cnc(C(=O)N[C@H]2CCCCC/C=C\\[C@@H]3C[C@@]3(C(=O)NS(=O)(=O)C3CC3)NC(=O)[C@@H]3C[C@@H](Oc4nc5ccccc5c5ccccc45)CN3C2=O)cn1 [paritaprevir]")
99.9
>>> val("CN(C)C/C=C/C(=O)Nc1ccc(C(=O)Nc2cccc(Nc3ncc(Cl)c(-c4c[nH]c5ccccc45)n3)c2)cc1 [THZ1]")
39.6
>>> val("CC[C@H](C)[C@H](N)C(=O)O [isoleucine]")
99.9
>>> val("C[C@H](NC[C@H](O)CP(=O)(O)CC1CCCCC1)c1ccc(Cl)c(Cl)c1")
102
>>> val("C=CCc1ccc(O)c(-c2ccc(O)c(CC=C)c2)c1 [honokiol]")
96.6
>>> val("O=C(O)c1cc(O)c2c3nc4ccccc4oc-3cc(=O)c2n1 [pirenoxine]")
106
>>> val("CNS(=O)(=O)CCc1ccc2[nH]cc(C3CCN(C)CC3)c2c1 [naratriptan]")
97
>>> val("Cc1cc2c(C(C)C)c(O)c(O)c(C=O)c2c(O)c1-c1c(C)cc2c(C(C)C)c(O)c(O)c(C=O)c2c1O [gossypol]")
103
>>> val("CSc1ccc2c(c1)[C@H](N1CCN(C)CC1)Cc1ccccc1S2 (racemic) [metitepine]")
104
>>> val("C[C@H](c1ccc(F)cc1CCCC(=O)O)N(c1cc(F)ccc1F)S(=O)(=O)c1ccc(Cl)cc1")
103
>>> val("N#Cc1cnc2cnc(NCc3cccnc3)cc2c1Nc1ccc(F)c(Cl)c1 [TC-S-7006]")
91.8
>>> val("Cc1cc(OI)c(C(C)C)cc1-c1cc(C(C)C)c(OI)cc1C [thymol-iodide]")
101
>>> val("CCCN1CCCC[C@H]1C(=O)Nc1c(C)cccc1C [ropivacaine]")
103
>>> val("C[C@@H]1CN(CCCn2c3ccccc3c3ccccc32)C[C@H](C)N1 [rimcazole]")
90.2
>>> val("CCOc1ccc(S(=O)(=O)O)c2cccnc12 [actinoquinol]")
99.8
>>> val("CC(C)(C)NCC(O)c1cc(Br)no1 (stereo not drawn) [broxaterol]")
111
>>> val("O=C(O)CCCc1ccccc1 [phenylbutyrate]")
109
>>> val("C=C(C)[C@@H]1CCC(C)=C[C@H]1c1c(OC)cc(C)cc1OC [O-1918]")
91.6
